Reference source for all entries: ChEMBL document CHEMBL3396995

- system under test: Peroxisome proliferator-activated receptor gamma (Homo sapiens, UniProt P37231)
- Sequence (P37231 whole entry, the tested form may be a part): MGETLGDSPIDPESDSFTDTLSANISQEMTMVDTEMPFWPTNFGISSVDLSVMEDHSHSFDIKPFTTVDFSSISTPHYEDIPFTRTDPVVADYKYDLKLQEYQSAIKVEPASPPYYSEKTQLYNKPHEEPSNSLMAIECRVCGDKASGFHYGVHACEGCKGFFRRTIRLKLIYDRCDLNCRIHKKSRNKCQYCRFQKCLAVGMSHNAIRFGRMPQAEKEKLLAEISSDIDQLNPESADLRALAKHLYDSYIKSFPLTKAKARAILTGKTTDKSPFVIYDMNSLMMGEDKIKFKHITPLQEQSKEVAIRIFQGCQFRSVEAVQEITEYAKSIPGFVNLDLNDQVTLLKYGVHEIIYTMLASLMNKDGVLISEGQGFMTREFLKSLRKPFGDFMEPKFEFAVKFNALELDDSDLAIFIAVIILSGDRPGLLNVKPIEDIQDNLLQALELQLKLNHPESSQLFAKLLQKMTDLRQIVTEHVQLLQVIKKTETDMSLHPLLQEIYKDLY
- method: Agonist activity at GAL4 tagged human PPARgamma ligand binding domain expressed in HEK293 cells by luciferase reporter gene assay
pEC50: −log10 of the molar value.
endpoint label: pEC50

Known pEC50 results, listed for orientation:
molecule	pEC50
CCOC(=O)N1C[C@@H](Cc2cccc(OCCc3nc(-c4ccccc4)oc3C)c2)[C@@H](CC(=O)O)C1	< 5.00
Cc1oc(-c2ccccc2)nc1CCOc1cccc(C[C@H]2CN(C(=O)Oc3ccccc3)C[C@@H]2CC(=O)O)c1 (racemic)	< 5.00

Return the recorded pEC50 value; entry: CCOC(=O)N1C[C@H](CCc2ccc(OCCc3nc(-c4ccccc4)oc3C)cc2)[C@@H](C(=O)O)C1 (racemic)
< 5.00

Return the recorded pEC50 value; entry: Cc1oc(-c2ccccc2)nc1CCOc1ccc(CC[C@H]2CN(C(=O)Oc3ccccc3)C[C@@H]2C(=O)O)cc1 (racemic)
< 5.00

Return the recorded pEC50 value; entry: Cc1oc(-c2ccccc2)nc1CCOc1ccc(C[C@@H]2CN(c3nccc(C(F)(F)F)n3)C[C@H]2C(=O)O)cc1
< 4.52

Return the recorded pEC50 value; entry: CCOC(=O)N1C[C@H](C(=O)O)[C@H](c2ccc(OCCc3nc(-c4ccccc4)oc3C)cc2)C1 (racemic)
< 4.49
